Values were extracted from patent US20220315554A1.

Molecular target: Human recombinant FAP (Homo sapiens, UniProt Q12884)
Sequence (Q12884 whole entry): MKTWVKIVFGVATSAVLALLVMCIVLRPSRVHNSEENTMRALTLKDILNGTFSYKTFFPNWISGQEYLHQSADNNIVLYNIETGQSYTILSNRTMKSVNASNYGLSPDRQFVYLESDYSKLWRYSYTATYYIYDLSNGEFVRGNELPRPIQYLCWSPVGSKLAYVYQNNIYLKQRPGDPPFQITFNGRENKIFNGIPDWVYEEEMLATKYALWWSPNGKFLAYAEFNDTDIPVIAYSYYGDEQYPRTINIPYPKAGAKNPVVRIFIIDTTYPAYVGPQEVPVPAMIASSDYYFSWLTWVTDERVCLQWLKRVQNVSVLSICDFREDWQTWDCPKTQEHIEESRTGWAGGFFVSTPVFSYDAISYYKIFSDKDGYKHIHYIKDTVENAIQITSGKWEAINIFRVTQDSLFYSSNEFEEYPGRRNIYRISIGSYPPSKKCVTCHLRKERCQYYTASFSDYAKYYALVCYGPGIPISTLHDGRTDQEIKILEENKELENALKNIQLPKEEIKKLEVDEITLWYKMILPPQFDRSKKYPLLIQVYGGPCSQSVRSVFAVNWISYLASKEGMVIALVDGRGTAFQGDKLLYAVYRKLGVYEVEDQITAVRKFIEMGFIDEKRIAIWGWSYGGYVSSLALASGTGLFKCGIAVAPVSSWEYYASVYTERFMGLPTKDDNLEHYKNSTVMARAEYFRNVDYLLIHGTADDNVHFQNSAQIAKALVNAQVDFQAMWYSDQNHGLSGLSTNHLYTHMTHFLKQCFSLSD
Experiment: FRET-based FAP protease activity assay
Format: biochemical
Design: purchased R&D systems 3715-SE
Conditions: pIC50 Category (Activity), FRET substrate, 37° C.
pIC50: −log10 of the molar value. Numbered stars: 1 amine (or outer) side, 2 acyl side, 3 side chain; on linkers, the order of the positions; unused ones are H or OH. Bridge positions count the residues as written; N and C are the ends. Square brackets hold non-standard residues; d marks the D form. Peptide text beside a SMILES is read from it. * marks the point of attachment. TBMB(SCH2CH2NH-DOTA) = O=C(O)CN1CCN(CC(=O)O)CCN(CC(=O)NCCSCc2cc(C[*:1])cc(C[*:2])c2)CCN(CC(=O)O)CC1; X1 = O=C(O)CN1CCN(CC(=O)O)CCN(CC(=O)N2CCN(Cc3cc(C[*:1])cc(C[*:2])c3)CC2)CCN(CC(=O)O)CC1; Hexanoyl = CCCCCC(=O)*; Sar = CNCC(=O)O

molecule	pIC50
CCCCCC(=O)N[C@H]1CSCc2cc(cc(CN3CCN(C(=O)CN4CCN(CC(=O)O)CCN(CC(=O)O)CCN(CC(=O)O)CC4)CC3)c2)CSC[C@@H](C(=O)O)NC(=O)[C@H](Cc2ccccc2)NC(=O)[C@H](CCC(N)=O)NC(=O)[C@H]([C@@H](C)O)NC(=O)[C@@H]2CCCN2C(=O)CN(C)C1=O [3BP-3771] (Hexanoyl-C[Sar]PTQFC-OH; linker 1-7 via X1)	> 8.00
CCCCCC(=O)N[C@H]1CSCc2cc(CSCCNC(=O)CN3CCN(CC(=O)O)CCN(CC(=O)O)CCN(CC(=O)O)CC3)cc(c2)CSC[C@@H](C(=O)O)NC(=O)[C@H](Cc2ccccc2)NC(=O)[C@H](CCC(N)=O)NC(=O)[C@H]([C@@H](C)O)NC(=O)[C@@H]2CCCN2C(=O)[C@@H]2CCCN2C1	> 8.00
CCCCCC(=O)N[C@H]1CSCc2cc(CSCCNC(=O)CN3CCN(CC(=O)O)CCN(CC(=O)O)CCN(CC(=O)O)CC3)cc(c2)CSC[C@@H](C(=O)N(C)CC(=O)O)NC(=O)[C@H](Cc2ccccc2)NC(=O)[C@H](CCC(N)=O)NC(=O)[C@H]([C@@H](C)O)NC(=O)[C@@H]2CCCN2C(=O)[C@@H]2CCCN2C1	> 8.00
CCCCCC(=O)N[C@H]1CSCc2cc(CSCCNC(=O)COCCOCCNC(=O)CC[C@H](C(=O)O)N3CCN(CC(=O)O)CCN(CC(=O)O)CC3)cc(c2)CSC[C@@H](C(=O)O)NC(=O)[C@H](Cc2ccccc2)NC(=O)[C@H](CCC(N)=O)NC(=O)[C@H]([C@@H](C)O)NC(=O)[C@@H]2CCCN2C(=O)[C@@H]2CCCN2C1=O	> 8.00
CCCCCC(=O)N[C@H]1CSCc2cc(CSCCNC(=O)CN3CCN(CC(=O)O)CCN(CC(=O)O)CCN(CC(=O)O)CC3)cc(c2)CSC[C@@H](C(=O)O)NC(=O)[C@H](Cc2ccccc2)NC(=O)[C@H](CCC(=O)O)NC(=O)[C@H]([C@@H](C)O)NC(=O)[C@@H]2CCCN2C(=O)[C@@H]2CCCN2C1=O [3BP-4250] (Hexanoyl-CPPTEFC-OH; linker 1-7 via TBMB(SCH2CH2NH-DOTA))	7.10 to 8.00
CCCCCS(=O)(=O)N[C@H]1CSCc2cc(CSCCNC(=O)CN3CCN(CC(=O)O)CCN(CC(=O)O)CCN(CC(=O)O)CC3)cc(c2)CSC[C@@H](C(=O)O)NC(=O)[C@H](Cc2ccccc2)NC(=O)[C@H](CCC(N)=O)NC(=O)[C@H]([C@@H](C)O)NC(=O)[C@@H]2CCCN2C(=O)[C@@H]2CCCN2C1=O [3BP-3691]	7.10 to 8.00
